assay: retention time on BEH HILIC column (20 min gradient, 0.4 mL/min); higher = later elution; settings: ionization: ESI negative; LC: HILIC, pH 9.0 ammonium acetate
Label Satisfied when retention time on BEH HILIC column >= 2 min; otherwise Not satisfied.

Ask: API: above_or_equal(metric=retention time on BEH HILIC column, cutoff=2 min) for item NC(=O)C[C@H](N)C(=O)O
Reply: Satisfied

Ask: API: above_or_equal(metric=retention time on BEH HILIC column, cutoff=2 min) for item Nc1ncnc2c1ncn2[C@@H]1O[C@@H]2COP(=O)(O)O[C@H]2[C@H]1O
Reply: Satisfied

Ask: API: above_or_equal(metric=retention time on BEH HILIC column, cutoff=2 min) for item Cc1cc2nc3c(=O)[nH]c(=O)nc-3n(C[C@H](O)[C@H](O)[C@H](O)COP(=O)(O)OP(=O)(O)OC[C@H]3O[C@@H](n4cnc5c(N)ncnc54)[C@H](O)[C@@H]3O)c2cc1C
Reply: Satisfied

Ask: API: above_or_equal(metric=retention time on BEH HILIC column, cutoff=2 min) for item CCC(CO)C(=O)O (stereo not given) [2-ethylhydracrylic acid]
Reply: Not satisfied

Ask: API: above_or_equal(metric=retention time on BEH HILIC column, cutoff=2 min) for item CCC(C)(O)C(=O)O (stereo not given) [2-hydroxy-2-methyl butyric acid]
Reply: Not satisfied

Ask: API: above_or_equal(metric=retention time on BEH HILIC column, cutoff=2 min) for item OC[C@@H](O)[C@@H](O)[C@H](O)[C@@H](O)CO
Reply: Satisfied

Ask: API: above_or_equal(metric=retention time on BEH HILIC column, cutoff=2 min) for item CC(C)CC(=O)O
Reply: Not satisfied

Ask: API: above_or_equal(metric=retention time on BEH HILIC column, cutoff=2 min) for item O=C(O)C(O)CCO (stereo not given) [2,4-dihydroxybutyric acid]
Reply: Satisfied

Ask: API: above_or_equal(metric=retention time on BEH HILIC column, cutoff=2 min) for item O=C(O)c1cc(=O)c2ccccc2[nH]1
Reply: Satisfied

Ask: API: above_or_equal(metric=retention time on BEH HILIC column, cutoff=2 min) for item CCCCCCCCCCCCCC(=O)O
Reply: Not satisfied

Ask: API: above_or_equal(metric=retention time on BEH HILIC column, cutoff=2 min) for item OC[C@H]1O[C@@H](n2cnc3c(O)ncnc32)[C@H](O)[C@@H]1O
Reply: Satisfied

Ask: API: above_or_equal(metric=retention time on BEH HILIC column, cutoff=2 min) for item N[C@@H](CC(=O)O)C(=O)O
Reply: Satisfied

Ask: API: above_or_equal(metric=retention time on BEH HILIC column, cutoff=2 min) for item O=C(O)CC(O)(CC(=O)O)C(=O)O
Reply: Satisfied

Ask: API: above_or_equal(metric=retention time on BEH HILIC column, cutoff=2 min) for item NC(=O)NCCC[C@H](N)C(=O)O
Reply: Satisfied

###

assay: retention time on BEH HILIC column (20 min gradient, 0.4 mL/min); higher = later elution; conditions: ionization: ESI negative; LC: HILIC, pH 9.0 ammonium acetate
parameter-measured: retention time on BEH HILIC column (min)
Give just the numeric value; min need not be written.

Ask: Please report the measured retention time on BEH HILIC column for O=C(O)CCCCCCCC(=O)O [Azelaic acid]
Reply: 0.8

Ask: Please report the measured retention time on BEH HILIC column for O=C(O)/C=C(/CC(=O)O)C(=O)O [cis-aconitic]
Reply: 2.8

Ask: Please report the measured retention time on BEH HILIC column for O=C(O)c1ccc(CO)o1 [Sumiki's acid]
Reply: 3.07

Ask: Please report the measured retention time on BEH HILIC column for CCCCCCCCCCCCCCCCCCCCCC(=O)O [Behenic acid]
Reply: 0.73

Ask: Please report the measured retention time on BEH HILIC column for N[C@@H](CCC(=O)N[C@@H](CS)C(=O)NCC(=O)O)C(=O)O [Glutathione]
Reply: 9.37

Ask: Please report the measured retention time on BEH HILIC column for C[C@@H](CCC(=O)O)CC(=O)O [3-methyladipic acid]
Reply: 0.93

Ask: Please report the measured retention time on BEH HILIC column for Cc1cccc(O)c1 [m-cresol]
Reply: 0.75

Ask: Please report the measured retention time on BEH HILIC column for CCCCC(=O)O [Valeric acid]
Reply: 3.22

Taken from the supplement of paper PMC11127212.
